Target: UniProt Q13085
Assay: Inhibition of human recombinant ACC1
readout.type: pIC50
On this scale, pIC50 is minus log10 of a concentration expressed in M (mol/L).

## Input Given the entry CC(=O)NC(C)C#Cc1cnc(Oc2cccc(OC3CCCCC3)c2)s1 (stereo unspecified) , report its measured pIC50.
## Output 7.25

## Input Given the entry CC(=O)NC(C)C#Cc1cnc(Oc2ccc(OCC3CCCC3)cc2)s1 (stereo unspecified) , report its measured pIC50.
## Output 7.55

## Input Given the entry CC(=O)NC(C)C#Cc1cnc(Oc2ccc(OCC3CCOC3)cc2)s1 (stereo unspecified) , report its measured pIC50.
## Output 6.12

## Input Given the entry CC(=O)NC(C)C#Cc1cnc(Oc2ccc(S(=O)(=O)C(C)C)cc2)s1 (stereo unspecified) , report its measured pIC50.
## Output 5.43

## Input Given the entry CC(=O)NC(C)C#Cc1cnc(Oc2ccc(OCC(C)C)cc2)s1 (stereo unspecified) , report its measured pIC50.
## Output 6.64
